biological target: full-length SARM1 (FL-SARM1) (Homo sapiens, UniProt Q6SZW1); assay: FL-SARM1 cellular lysate assay (NAD/NADH-Glo readout of remaining NAD+); conditions: Activity, SARM1 cellular lysate from transfected HEK293T cells, NAD+ and NMN, 11 point curve
Sequence (Q6SZW1 28-724): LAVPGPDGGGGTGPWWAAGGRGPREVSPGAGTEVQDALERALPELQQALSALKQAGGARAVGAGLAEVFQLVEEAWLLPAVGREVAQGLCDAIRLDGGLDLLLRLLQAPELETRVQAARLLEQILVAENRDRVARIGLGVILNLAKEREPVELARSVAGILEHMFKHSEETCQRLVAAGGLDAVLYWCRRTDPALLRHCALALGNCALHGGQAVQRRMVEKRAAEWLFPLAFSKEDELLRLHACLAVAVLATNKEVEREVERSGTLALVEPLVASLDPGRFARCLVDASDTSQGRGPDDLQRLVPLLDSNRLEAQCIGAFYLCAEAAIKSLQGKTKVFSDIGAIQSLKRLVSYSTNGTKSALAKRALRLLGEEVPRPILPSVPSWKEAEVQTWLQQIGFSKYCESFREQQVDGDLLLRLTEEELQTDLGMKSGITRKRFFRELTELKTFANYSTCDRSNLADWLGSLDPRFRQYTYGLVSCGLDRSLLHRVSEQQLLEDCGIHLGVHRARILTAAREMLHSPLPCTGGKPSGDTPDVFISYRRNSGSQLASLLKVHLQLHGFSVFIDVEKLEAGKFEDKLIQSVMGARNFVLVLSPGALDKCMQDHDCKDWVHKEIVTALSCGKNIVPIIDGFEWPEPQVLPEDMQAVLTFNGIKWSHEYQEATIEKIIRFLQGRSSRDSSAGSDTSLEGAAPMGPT
pIC50: −log10 of the molar value.
RESULT TYPE: pIC50

COMPOUND: Cc1nnc([C@]23C[C@H](C)C[C@H](C2)N3C(=O)Nc2cc(-c3cncc(F)c3)c(Cl)cc2F)o1 (single isomer, unassigned) [Example 133]
pIC50: < 5.00
--
COMPOUND: Cc1nnc([C@]23C[C@H](C)C[C@H](C2)N3C(=O)Nc2cc(-c3cncc(F)c3)c(C)cc2F)o1 (single isomer, unassigned) [Example 125]
pIC50: 6.00 to 10.00
--
COMPOUND: Cc1ccc(NC(=O)N2C3CCC2(C)CC3)cc1-c1cncc(F)c1
pIC50: 6.00 to 10.00

Next:
Measured pIC50 of COc1ccncc1-c1cc(NC(=O)N2C3CCCC2C3)ccc1C : 5.00 to 6.00
